Values were extracted from ChEMBL document CHEMBL1154502.

- test: Dissociation constant, pKa of the compound
- Type: physicochemical

[
  {
    "compound": "CCc1ccccc1C(=O)N(C1CCC2(CC1)OCCO2)C(Cc1ccc(Cl)cc1)CN(C)C (racemic)",
    "pKa": 7.4
  },
  {
    "compound": "CN(C)Cc1ccccc1C(=O)N(CCc1ccc(Cl)cc1)C1CCC2(CC1)OCCO2",
    "pKa": 8.4
  }
]
